Recorded values, source patent US8846719B2.

molecular target: human GABA A receptor α5β3γ2 (Homo sapiens (Human), UniProt P18507+P31644); assay: [3H]flumazenil competition binding assay, human GABA A α5β3γ2 receptors expressed in HEK293 cells; conditions: human receptor; displacement of [3H]flumazenil (0.5 nM); means of two determinations; read-out: hKi GABAAa5
measure: pKi
To interpret pKi, take it as minus log10 of a concentration measured in moles per litre.

Query :: Complete the entry with pKi for "O=C(NC1CCOCC1)c1ccc(OCc2conc2-c2ccc(F)cc2)nc1"
Result :: 7.97

Query :: Complete the entry with pKi for Cc1onc(-c2ccccc2)c1COc1ccc(C(=O)NC2CCCN(CC(=O)O)C2)cn1 (stereo not drawn)
Result :: 8.03

Query :: Complete the entry with pKi for "Cc1onc(-c2ccccc2)c1CNc1ccc(C(=O)NCCO)cn1"
Result :: 7.98

----------
molecular target: human GABA A receptor α5β3γ2 (Homo sapiens (Human), UniProt P18507+P31644); assay: [3H]flumazenil competition binding assay, human GABA A α5β3γ2 receptors expressed in HEK293 cells; settings: human receptor; displacement of [3H]flumazenil (0.5 nM); means of two determinations; read-out: hKi GABAAa5
measure: pKi
To interpret pKi, take it as minus log10 of a concentration measured in moles per litre.

compound-structure	pKi
Cc1onc(-c2ccc(F)cc2)c1CNc1ccc(C(=O)NC2CCOCC2)cn1	8.19
CCNC(=O)c1ccc(OCc2c(-c3ccncn3)noc2C)nc1	8.51
COC1CN(C(=O)c2ccc(OCc3c(-c4ccccc4)noc3C)nc2)C1	7.80
Cc1cccc(-c2noc(C)c2COc2ccc(C(=O)NC(C)C)cn2)c1	8.51
COCCNC(=O)c1ccc(OCc2c(-c3ccccn3)noc2C)nc1	8.96
Cc1onc(-c2ccc(F)c(F)c2)c1COc1ccc(C(=O)NC(C)C)cn1	8.33

Query :: Complete the entry with pKi for "O=C(NCC1CC1)c1ccc(OCc2conc2-c2ccccn2)nc1"
Result :: 7.72

Query :: Complete the entry with pKi for "Cc1onc(-c2cccc(F)c2)c1COc1ccc(C(=O)NCC2CC2)cn1"
Result :: 8.49

Query :: Complete the entry with pKi for "Cc1onc(-c2ccccc2)c1COc1ccc(C(=O)N2CCC23COC3)cn1"
Result :: 7.77

----------
target: human GABA A receptor α5β3γ2 (Homo sapiens (Human), UniProt P18507+P31644); test: [3H]flumazenil competition binding assay, human GABA A α5β3γ2 receptors expressed in HEK293 cells; details: human receptor; displacement of [3H]flumazenil (0.5 nM); means of two determinations; read-out: hKi GABAAa5
measure: pKi
To interpret pKi, take it as minus log10 of a concentration measured in moles per litre.

Below, each entry is followed by its recorded pKi result.
compound	pKi
Cc1onc(-c2ccccc2)c1COc1ccc(C(=O)Nc2cnn(C)c2)cn1 [Example 237]	8.96
Cc1onc(-c2ccccc2)c1COc1ccc(C(=O)n2ccc(=O)[nH]2)cn1 [Example 238]	7.46
Cc1noc(-c2ccc(OCc3c(-c4ccccc4)noc3C)nc2)n1 [Example 245]	8.48
Cc1onc(-c2cccnc2)c1COc1ccc(C(=O)NCC(F)(F)F)cn1 [Example 155]	7.62
Cc1onc(-c2ccccc2)c1COc1ccc(C(=O)N2CC(O)C2)cn1 [Example 191]	8.30
Cc1onc(-c2ccccc2)c1COc1ccc(C(=O)NCc2cc(C(C)C)no2)cn1 [Example 80]	7.35

Query :: Specify the recorded pKi for Cc1onc(-c2ccccc2)c1COc1ncc(C(=O)NC(C)C)cc1Br [Example 68] , system: human GABA A receptor α5β3γ2 (Homo sapiens (Human), UniProt P18507+P31644).
Result :: 7.73

Query :: Specify the recorded pKi for Cc1onc(-c2ccc(F)cn2)c1COc1ccc(C(=O)NC(C)(C)CO)cn1 [Example 291] , system: human GABA A receptor α5β3γ2 (Homo sapiens (Human), UniProt P18507+P31644).
Result :: 8.92

Query :: Specify the recorded pKi for Cc1onc(-c2ccccc2)c1COc1ccc(C(=O)NC2CCCN(CC(=O)NCC(F)(F)F)C2)cn1 (stereo not drawn) [Example 44] , system: human GABA A receptor α5β3γ2 (Homo sapiens (Human), UniProt P18507+P31644).
Result :: 8.00

Query :: Specify the recorded pKi for Cc1onc(-c2ccccc2)c1COc1ccc(C(=O)N[C@@H]2CCC[C@H]2O)cn1 (single isomer, unassigned) [Example 213] , system: human GABA A receptor α5β3γ2 (Homo sapiens (Human), UniProt P18507+P31644).
Result :: 8.80

Query :: Specify the recorded pKi for Cc1onc(-c2ccccc2)c1COc1ccc(C(=O)N2CCSC2)cn1 [Example 242] , system: human GABA A receptor α5β3γ2 (Homo sapiens (Human), UniProt P18507+P31644).
Result :: 7.43

----------
target: human GABA A receptor α5β3γ2 (Homo sapiens (Human), UniProt P18507+P31644); assay: [3H]flumazenil competition binding assay, human GABA A α5β3γ2 receptors expressed in HEK293 cells; conditions: human receptor; displacement of [3H]flumazenil (0.5 nM); means of two determinations; read-out: hKi GABAAa5
measure: log10 Ki (log10 of the value in nM)
Base-10 log of Ki, unit nM.

Below, each entry is followed by its recorded log10 Ki result.
molecule	log10 Ki
O=C(N[C@H]1CCC[C@@H]1O)c1ccc(OCc2conc2-c2ccc(F)cc2)nc1 [Example 331]	1.25
Cc1onc(-c2ccccc2)c1COc1ccc(C(=O)NCC(C)(C)O)cn1 [Example 193]	0.36
Cc1onc(-c2ccccc2)c1COc1ccc(C(=O)N[C@@H](C)C(F)(F)F)cn1 [Example 235]	0.28
Cc1onc(-c2ccc(F)cc2)c1COc1ccc(C2(O)COC2)cn1 [Example 113]	1.32
COC(=O)c1ccc(OCc2c(-c3ccc(F)cc3)noc2C(F)(F)F)nc1 [Example 136]	1.76

Query :: Complete the entry with log10 Ki for O=C(NCC1CC1)c1ccc(OCc2conc2-c2ccc(F)cc2)nc1 [Example 328]
Result :: 1.24

Query :: Complete the entry with log10 Ki for Cc1onc(-c2ccc(F)cn2)c1COc1ccc(C(=O)N[C@@H](C)C(F)(F)F)cn1 [Example 299]
Result :: -0.30

Query :: Complete the entry with log10 Ki for Cc1onc(-c2ccc(F)cc2)c1COc1ccc(C(=O)NC2CCOCC2)cn1 [Example 109]
Result :: -0.10

Query :: Complete the entry with log10 Ki for Cc1onc(-c2ccc(Cl)cc2)c1COc1ccc(C(=O)Nc2cnn(C)c2)cn1 [Example 255]
Result :: -0.10

Query :: Complete the entry with log10 Ki for Cc1onc(-c2ccccc2)c1COc1ccc(C(=O)N2CCSCC2)cn1 [Example 54]
Result :: 1.41

Query :: Complete the entry with log10 Ki for O=C(NC1CCOCC1)c1ccc(OCc2conc2-c2ccc(Cl)cc2)nc1 [Example 345]
Result :: 0.81

----------
Recorded measurements of Ki, one per entry
molecular target: human GABA A receptor α5β3γ2 (Homo sapiens (Human), UniProt P18507+P31644); experiment: [3H]flumazenil competition binding assay, human GABA A α5β3γ2 receptors expressed in HEK293 cells; conditions: human receptor; displacement of [3H]flumazenil (0.5 nM); means of two determinations; read-out: hKi GABAAa5
The response must be a number in nM with no trailing unit.

Below, each entry is followed by its recorded Ki result.
compound	unit-symbol	endpoint-result
Cc1onc(-c2ccccc2)c1COc1ccc(C(=O)NC2CCCCC2)cn1	nM	13.1
Cc1onc(-c2ccccc2)c1COc1ccc(NC(=O)C(C)C)cn1	nM	19.2
O=C(NCCO)c1ccc(OCc2conc2-c2ccc(F)cn2)nc1	nM	21.4
COCCCNC(=O)c1ccc(OCc2c(-c3ccccc3)noc2C)nc1	nM	5.2
Cc1onc(-c2ccccc2)c1COc1ccc(C(=O)NC(C)C(F)(F)F)cn1 (stereo not shown)	nM	0.6
O=C(NCC(O)C(F)(F)F)c1ccc(OCc2conc2-c2ccc(F)cc2)nc1 (stereo not shown)	nM	13.1

Next up:
Query :: Complete the entry with Ki for "O=C(NC1CCOCC1)c1ccc(OCc2c(-c3ccc(F)cc3)noc2C(F)(F)F)nc1"
Result :: 12.5
